Documented Adrenal gland/kidney ratio of radioactivity accumulation across a set of compounds
# method-description: In vivo kinetics experiment (radioactivity distribution)
# Parameters: species or system Wistar male rat
# run-conditions: rat, caudal vein, 10 min after administration
Write the value as a bare number.

Worked examples follow.
# compound, recorded-number
measured = [
    ("Fc1cc2nc(-c3cncc(Cn4ccnc4)c3)n(CC[18F])c2cc1Cl [[^18F] 100]", 6.14),
    ("[123I]c1ccc2nc(-c3cncc(Cn4ccnc4)c3)n(C3CC3)c2c1 [[^123I] 602]", 5.85),
    ("Fc1cc2nc(-c3cncc(Cn4ccnc4)c3)n(CCC[18F])c2cc1Cl [[^18F] 500]", 14.57),
    ("[123I]c1ccc2nc(-c3cncc(Cn4ccnn4)c3)n(C3CC3)c2c1 [[^123I] 603]", 3.95),
    ("Fc1cc2nc(-c3cncc(Cn4ccnc4)c3)n(CC[18F])c2cc1Br [[^18F] 200]", 11.40),
]

Attention now shifts to the item below.
Ask: May I ask what Adrenal gland/kidney ratio of radioactivity accumulation has been recorded for FCCn1c(-c2cncc(Cn3ccnc3)c2)nc2cc(F)c([123I])cc21 [[^123I] 400] ?
Reply: 5.85
